# Tested on: SNB-75 CNS
# Assay Text: NCI tumour cell line growth inhibition, 48 h
Measured Quantity: TGI

// solved cases for TGI follow
Molecule	Target Or System	Measured Quantity	Result
CC(=O)[CH-]C(=O)c1ccccc1.[C-]#[O+].[C-]#[O+].[Ir]	SNB-75 CNS	TGI	> 100 µM
S=C1Cc2c(-c3ccccc3)cc(-c3cccc(Cl)c3)nc2-c2ccccc2N1	SNB-75 CNS	TGI	5.86 µM
N#CC(C#N)=C/C=C(\Sc1ccc(Cl)cc1)c1ccc(F)cc1	SNB-75 CNS	TGI	31.7 µM
CCCCCC(=O)O[C@]1(C(C)=O)CCC2C3CCC4=CC(=O)CC[C@]4(C)C3CC[C@@]21C (stereo partly specified)	SNB-75 CNS	TGI	12.6 µM
O=C1N[C@@H]2CCCC[C@@H]2C12CCCCC2	SNB-75 CNS	TGI	> 100 µM

Quick one: give me TGI for each item below, same order please.
1. CC1=NN(c2nc(N)nc(C(C)Cl)n2)C(C)(C)C1 (stereo unspecified)
2. CNCc1ccc(-c2cc(-c3nc(-c4ccc(S(=O)(=O)C(C)C)cc4)cnc3N)on2)cc1
3. COC(=O)c1cc(S(=O)(=O)NC2=NCC(C)NN2)c(S)cc1Cl (stereo unspecified)
4. CCOC(=O)C1(C)CCC(C(C(=O)O)C(=O)O)CC1=O (stereo unspecified)

["> 100 µM", "26.4 µM", "75.3 µM", "> 100 µM"]

Provide each entry's TGI from the list below.
1. CC(=O)OCC(=O)[C@@]1(O)CC[C@H]2[C@@H]3C[C@H](C)C4=CC(=O)C=C[C@]4(C)[C@@]3(F)[C@@H](O)C[C@@]21C
2. CCOC(=O)C1(C/C=C\CBr)CCCC1=O (stereo unspecified)
3. CCCCCCCCCCCC[C@@H](O)[C@H]1CC[C@H]([C@H](O)CC[C@H](O)[C@@H]2CC[C@@H](CCCCCCCC3=C[C@H](C)OC3=O)O2)O1

1: > 100 µM; 2: > 100 µM; 3: > 50 µM
